Biological target: human MET ECD mutant E (mutations 2, 3, 4) (human) (UniProt P08581)
Test: ELISA, MET ECD in solid phase, mAb 0-50 nM
Readout: % binding (EMAX) compared to WT MET (% WT MET ECD)

- 71D6 chimeric llama-human IgG1 mAb (antibody, V domains shown, llama VH on human IgG1 CH1-CH2-CH3, llama VL on human lambda CL) VH: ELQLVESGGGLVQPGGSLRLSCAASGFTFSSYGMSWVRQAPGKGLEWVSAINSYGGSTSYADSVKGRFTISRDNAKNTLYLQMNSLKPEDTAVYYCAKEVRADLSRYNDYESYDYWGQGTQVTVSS VL: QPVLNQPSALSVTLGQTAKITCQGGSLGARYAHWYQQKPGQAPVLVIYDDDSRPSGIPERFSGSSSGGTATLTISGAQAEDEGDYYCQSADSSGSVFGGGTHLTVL: 43.6

These entries and their values trace back to patent US20210087281A1.
